These measurements were taken from ChEMBL document CHEMBL3351707.

molecular target: Muscarinic acetylcholine receptor M1 (Homo sapiens); assay: Positive allosteric modulator activity at human muscarinic receptor subtype 1 expressed in CHO-K1 cells by calcium mobilization assay relative to acetylcholine; type: functional, cell-based
Sequence (P11229 whole entry): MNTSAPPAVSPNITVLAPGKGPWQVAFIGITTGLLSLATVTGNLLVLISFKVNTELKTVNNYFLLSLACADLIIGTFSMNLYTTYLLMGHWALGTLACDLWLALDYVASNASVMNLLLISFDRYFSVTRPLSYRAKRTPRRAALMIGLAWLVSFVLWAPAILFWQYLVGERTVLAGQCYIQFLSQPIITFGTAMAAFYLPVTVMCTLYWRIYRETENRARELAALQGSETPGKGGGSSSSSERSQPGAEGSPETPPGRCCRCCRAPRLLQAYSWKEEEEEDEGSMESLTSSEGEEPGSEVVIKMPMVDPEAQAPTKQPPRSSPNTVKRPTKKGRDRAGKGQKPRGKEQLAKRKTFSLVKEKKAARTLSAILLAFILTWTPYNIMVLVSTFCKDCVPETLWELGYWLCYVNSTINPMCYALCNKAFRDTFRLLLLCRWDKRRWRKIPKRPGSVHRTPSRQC
Activity calls are given as the source filed them. The rule behind the calls is not given here.
recorded endpoint: Emax

// worked examples, Emax included
COc1ccc(Cn2cc3c(=O)n(Cc4ccc(C)cc4C)nc-3c3ccccc32)cc1; 39%
Cc1ccc(Cn2nc3c4ccccc4n(Cc4ccccn4)cc-3c2=O)c(C)c1; 83%
O=c1c2cn(Cc3ccccc3)c3ccccc3c-2nn1Cc1ccccc1F; 36%
Cc1ccc(Cn2nc3c4ccccc4n(Cc4ccc(-n5cccn5)cc4)cc-3c2=O)c(C)c1; 80%
Cn1nc2c3ccccc3n(Cc3ccc(-n4cccn4)cc3)cc-2c1=O; 88%

What measured Emax goes with Cc1ccc(Cn2nc3c4ccccc4n(C)cc-3c2=O)c(C)c1 ?
inactive

Consider the compound shown here: O=C1C(=O)N(Cc2ccc(-n3cccn3)cc2)c2ccccc21 What is its recorded Emax?
61%

For the compound Cc1ccc(Cn2nc3c4ccccc4n(Cc4cccc(F)c4)cc-3c2=O)c(C)c1 , what Emax is on record?
31%

---

molecular target: Muscarinic acetylcholine receptor M1 (Homo sapiens); test: Positive allosteric modulator activity at human muscarinic receptor subtype 1 expressed in CHO-K1 cells by calcium mobilization assay; type: functional, cell-based; conditions: read-out: EC50
pEC50: −log10 of the molar value.
recorded endpoint: pEC50

Examples with answers:
Cc1ccc(Cn2nc3c4ccccc4n(Cc4ccc(F)cc4)cc-3c2=O)c(C)c1; 5.69
Cc1ccc(Cn2nc3c4ccccc4n(Cc4ccccn4)cc-3c2=O)c(C)c1; 5.42
Cc1ccc(Cn2nc3c4ccccc4n(Cc4ccccc4F)cc-3c2=O)c(C)c1; 6.18
O=c1[nH]nc2c3ccccc3n(Cc3ccc(-n4cccn4)cc3)cc1-2; 5.92
Cc1ccccc1Cn1nc2c3ccccc3n(Cc3ccccc3)cc-2c1=O; 6.11
Cc1ccc(Cn2nc3c4ccccc4n(Cc4ccc(-c5cnn(C)c5)cc4F)cc-3c2=O)c(C)c1; 5.71

(a) Cc1cc(NC(=O)CS(=O)(=O)c2cn(Cc3ccc(-c4cnn(C)c4)nc3)c3cc(F)cc(F)c23)no1
(b) Cc1ccc(Cn2nc3c4ccccc4n(Cc4cccc(F)c4)cc-3c2=O)c(C)c1
(c) O=c1c2cn(Cc3ccccc3)c3ccccc3c-2nn1Cc1cccnc1
(d) Cc1ccc(C)c(Cn2nc3c4ccccc4n(Cc4ccccc4)cc-3c2=O)c1
(e) Cn1nc2c3ccccc3n(Cc3ccc(-n4cccn4)cc3)cc-2c1=O
// smallest pEC50 at index 0, largest at the end // rank by listing labels in the order requested
c, e, b, a, d
(c: 5.20, e: 5.61, b: 5.85, a: 6.07, d: 6.33)

(P) Cc1ccc(Cn2nc3c4ccccc4n(Cc4ccc(-n5cccn5)cc4)cc-3c2=O)c(C)c1
(Q) Cn1cc(-c2ccc(Cn3cc4c(=O)[nH]nc-4c4ccccc43)c(F)c2)cn1
Smaller pEC50 value, P vs Q ? Reply with the label of the item you choose.
P
(P: 5.94, Q: 6.22)

(I) Cc1ccc(Cn2nc3c4ccccc4n(Cc4ccncc4)cc-3c2=O)c(C)c1
(II) COc1ccc(Cn2cc3c(=O)n(Cc4ccc(C)cc4C)nc-3c3ccccc32)cc1
(III) Cc1ccc(Cn2nc3c4ccccc4n(Cc4cccnc4)cc-3c2=O)c(C)c1
// sort entries: pEC50, high to low Enter labels, ranked according to the request.
II, I, III
